# target.system: porcine beta-2 adrenoceptor (Sus scrofa, UniProt Q28997)
# Sequence (Q28997 whole entry): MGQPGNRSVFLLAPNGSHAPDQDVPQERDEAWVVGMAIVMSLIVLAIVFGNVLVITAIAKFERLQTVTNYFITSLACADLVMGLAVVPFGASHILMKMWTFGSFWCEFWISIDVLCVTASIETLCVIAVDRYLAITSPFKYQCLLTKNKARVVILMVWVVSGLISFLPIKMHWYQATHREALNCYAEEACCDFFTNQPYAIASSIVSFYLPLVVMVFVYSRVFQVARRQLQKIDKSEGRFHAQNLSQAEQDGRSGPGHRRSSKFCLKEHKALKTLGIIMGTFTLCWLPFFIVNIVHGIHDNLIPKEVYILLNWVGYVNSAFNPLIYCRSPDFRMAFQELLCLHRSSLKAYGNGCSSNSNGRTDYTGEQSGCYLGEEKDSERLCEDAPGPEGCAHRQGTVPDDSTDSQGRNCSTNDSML
# run.description: cAMP assay in CHO cells transfected with the porcine beta-2 adrenoceptor
# conditions: cAMP (DiscoveRx Hit Hunter cAMP II) in CHO cells transfected with porcine beta-2 adrenoceptor, 30 minutes with compound, 0.5 mM IBMX
endpoint: EC50 (nM)

A. COC(=O)c1ccc(CC[C@@H](C)N[C@@H]2CCn3c(=O)[nH]c4cccc(c43)[C@H]2O)cc1 (single isomer, unassigned)
B. CC(CCc1ccc2c(c1)OCO2)NC1CCn2c(=O)[nH]c3cccc(c32)C1O (centres unmarked)
Query: Identify the item whose EC50 is the smaller number: A or B Lab note: record the label of whichever item you select.
Response: A
(A: 6.2 nM, B: 11.7 nM)

Hey, just so you know, these numbers are from patent US20080161288A1.
